STUDY_SYSTEM: Tyrosine-protein phosphatase non-receptor type substrate 1 (Homo sapiens) + Leukocyte surface antigen CD47 (Homo sapiens) (UniProt P78324+Q08722)
Sequence (P78324 whole entry, looked up, the tested form may be a part): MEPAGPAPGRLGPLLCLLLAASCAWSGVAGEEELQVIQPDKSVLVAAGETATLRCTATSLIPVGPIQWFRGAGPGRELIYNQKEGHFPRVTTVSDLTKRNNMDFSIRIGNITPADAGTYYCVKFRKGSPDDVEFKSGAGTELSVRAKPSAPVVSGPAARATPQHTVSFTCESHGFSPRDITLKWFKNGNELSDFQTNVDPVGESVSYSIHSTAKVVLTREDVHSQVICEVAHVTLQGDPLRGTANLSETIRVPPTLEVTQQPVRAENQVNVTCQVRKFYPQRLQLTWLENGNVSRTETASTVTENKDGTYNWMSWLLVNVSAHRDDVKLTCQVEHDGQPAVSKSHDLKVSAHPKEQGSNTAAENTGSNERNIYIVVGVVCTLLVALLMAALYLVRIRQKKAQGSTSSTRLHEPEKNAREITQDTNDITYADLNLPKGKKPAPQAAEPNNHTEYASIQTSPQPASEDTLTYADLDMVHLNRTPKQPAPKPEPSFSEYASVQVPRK
Sequence (Q08722 whole entry, looked up, the tested form may be a part): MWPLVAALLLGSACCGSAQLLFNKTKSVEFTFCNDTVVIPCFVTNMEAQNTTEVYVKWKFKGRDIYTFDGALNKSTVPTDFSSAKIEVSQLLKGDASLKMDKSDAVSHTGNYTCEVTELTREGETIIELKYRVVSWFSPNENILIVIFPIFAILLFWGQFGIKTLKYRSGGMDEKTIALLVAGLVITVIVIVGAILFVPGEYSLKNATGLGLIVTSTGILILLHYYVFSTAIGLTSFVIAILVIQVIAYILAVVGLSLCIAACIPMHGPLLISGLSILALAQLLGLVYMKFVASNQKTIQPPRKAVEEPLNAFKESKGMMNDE
METHOD_DESCRIPTION: CD47-SIRPalpha protein protein interaction - HTRF assay qHTS validation (AID 1347058);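 also: recombinant soluble extracellular CD47 with His tag and biotinylated SIRPalpha domains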
MEASUREMENT_SETUP: TR-FRET HTRF CD47-His / biotin-SIRPalpha binding, ratio 665/615; series mostly up to 38.3 µM
Results filed as inconclusive are left out. Calls of active or inactive are those of the source. Calls follow the shape of the dose curve; as a rule, active = well fitted curve in the direction sought with a large enough effect in the signal ratio (not every such curve was filed as active); inconclusive = small, poorly fitted or top-dose-only effect, or effect the other way, or a change in a side signal; inactive = no such curve, though single readings can be large or run the other way; the % refers to the signal ratio.
ASSAY_READOUT: outcome

INSERT INTO assay_data (compound, assay_readout, reported_result) VALUES
  ('CN[C@@H]1C[C@@H](c2ccc(Cl)c(Cl)c2)c2ccccc21', 'outcome', 'inactive'),
  ('NC(=O)CN1CC(O)CC1=O (configuration not stated)', 'outcome', 'inactive'),
  ('O=C(Cc1ccc(Cl)c(Cl)c1)N1CCCCC1CN1CCCC1 (configuration not stated)', 'outcome', 'inactive'),
  ('C#CCOC(=O)C1=CCCN(C)C1', 'outcome', 'inactive'),
  ('O=C(O)CC[N+](=O)[O-]', 'outcome', 'inactive');

For every item below, please supply its outcome.
1. C[N+]1(C)C2CCC1CC(OC(=O)C(CO)c1ccccc1)C2 (configuration not stated)
2. Cn1cnc(CCN)c1

Given back:
1: inactive; 2: inactive

For every item below, please supply its outcome.
1. CNCCc1c[nH]c2ccc(O)cc12
2. NC(CCP(=O)(O)O)C(=O)O (configuration not stated)
3. CS(=N)(=O)CC[C@H](N)C(=O)O (some centres not stated)
4. CC[C@@H](C(N)=O)N1CCCC1=O
5. C/C=C(/C)C(=O)O[C@H]1C(C)=C2[C@H]([C@@H]1OC(=O)CCCCCCC)[C@@](C)(OC(C)=O)C[C@H](OC(=O)CCC)[C@@]1(O)[C@H]2OC(=O)[C@@]1(C)O

Given back:
["inactive", "inactive", "inactive", "inactive", "inactive"]

----------
METHOD_DESCRIPTION: qHTS for Inhibitors of the Functional Ribonucleoprotein Complex (vRNP) of Lassa (LASV) Arenavirus: LASV Primary Screen - GLuc reporter signal (AID 1347082); also: nearly all actives have a fitted effect of over 60% in size
MEASUREMENT_SETUP: LASV minigenome vRNP, Gaussia luciferase reporter; series mostly up to 57.5 µM
Records with an inconclusive call do not appear. The source made the active and inactive calls. Calls follow the shape of the full dose curve; tested in HEK293 reporter line.
Write down the outcome that applies. Available outcomes: active, inactive

Completed entries (count: 3):
INSERT INTO assay_data (molecule, answer_label) VALUES
  ('CC(=O)N[C@@H](CCC(N)=O)C(=O)O', 'inactive'),
  ('OC[C@H]1O[C@@H](n2cnc3c2NC=NC[C@@H]3O)C[C@H]1O', 'inactive'),
  ('CN1Cc2cc(C(=O)N3CCC(C4CCNCC4)CC3)ccc2N[C@@H](CC(=O)O)C1=O', 'inactive');

Here is another molecule to look at.
Asked: Name the outcome recorded for CCN(c1ccccc1)c1cc(NC)[n+](C)c(C)n1 in the assay.
Given back: inactive

----------
METHOD_DESCRIPTION: Quantitative High-Throughput drug screen in 47 multiple myeloma cell lines against the NCATS MIPE library collection: L363_DSMZ cell viability assay (AID 1918984); also: nearly all actives have a fitted effect of over 40% in size
MEASUREMENT_SETUP: L363 myeloma viability, CellTiter-Glo ATP luminescence, 48 h; series mostly up to 45.8 µM
Records with an inconclusive call do not appear. Calls of active or inactive are those of the source. Calls come from the whole dose curve; as a rule, active = well fitted cell-killing curve with a large enough effect; inconclusive = small, poorly fitted or top-dose-only effect, or effect the other way; inactive = no such curve, though single readings can be large or run the other way.
Write down the outcome that applies. Available outcomes: t for active, f for inactive

Completed entries (count: 8):
INSERT INTO results (compound, answer_label) VALUES
  ('COc1ccc(C(=O)c2c(C)n(CCN3CCOCC3)c3cc(I)ccc23)cc1', 't'),
  ('C[C@@H]1CC[C@H]2[C@@H](C)C(=O)O[C@@H]3O[C@@]4(C)CC[C@H]1[C@]32OO4', 'f'),
  ('COc1cc2cc(c1Cl)N(C)C(=O)C[C@H](OC(=O)C(C)C)[C@]1(C)O[C@H]1[C@H](C)[C@@H]1C[C@@](O)(NC(=O)O1)[C@H](OC)C=CC=C(C)C2', 'f'),
  ('CN1[C@H]2CC(O)C[C@H]1[C@H]1O[C@H]12 (stereo not given in full)', 'f'),
  ('CC[C@@H]1[C@@H](C)O[C@@](O)([C@@H](C)[C@H](O)[C@H](C)[C@H]2OC(=O)C=CC=C[C@@H](C)[C@@H]([C@@H](C)[C@@H](O)[C@H](C)[C@@]3(O)C[C@H](O[C@H]4C[C@H](O)[C@H](O)[C@H](C)O4)[C@H](CC)[C@@H](C)O3)OC(=O)C=CC=C[C@@H]2C)C[C@H]1O[C@H]1C[C@H](O)[C@H](O)[C@H](C)O1', 't'),
  ('CCC(=O)OC1CCC2C3CCC4=CC(=O)CC[C@@]4(C)C3CC[C@]12C (stereo not given in full)', 'f'),
  ('N=c1c2c(-c3ccccc3)c(-c3ccccc3)n(Cc3ccccc3)c2ncn1C1CCC(O)CC1 (stereo not given)', 't'),
  ('C[C@H]([C@H](O)CCC(C)(C)O)[C@H]1CC[C@@]2(O)C3=CC(=O)[C@@H]4C[C@@H](O)[C@@H](O)C[C@]4(C)[C@@H]3CC[C@]12C', 'f');

Asked: Name the outcome recorded for CCN1C[C@]2(OC(=O)c3ccccc3NC(C)=O)CC[C@H](OC)[C@@]34[C@H]5CC6[C@@H](OC)C[C@](O)(C(C[C@@H]23)[C@@H]14)[C@@]5(O)[C@@H]6OC in the assay.
Given back: f

Asked: Name the outcome recorded for CCN1CCN(C(=O)Cc2ccc(Nc3ncc(F)c(Nc4ccc(C(=O)Nc5ccccc5Cl)cc4)n3)cc2)CC1 in the assay.
Given back: t

Asked: Name the outcome recorded for O=C(O)CNC(=O)c1c(O)c2ccccc2n(Cc2ccccc2)c1=O in the assay.
Given back: f

Asked: Name the outcome recorded for O=c1[nH]c2ccccc2n1C1CCN(Cc2ccc(-c3[nH]c4cc5ncnc5cc4nc3-c3ccccc3)cc2)CC1 in the assay.
Given back: t

Asked: Name the outcome recorded for CO[C@H]1CCC(O[C@H]2C[C@H]([C@]3(C)CC[C@]4(C[C@H](O)[C@@H](C)[C@@H]([C@@H](C)C=C(C)C(=O)[C@H](C)C[C@H](C)C(=O)O)O4)O3)O[C@]3(O[C@@H]([C@H]4O[C@@](O)(CO)[C@H](C)C[C@H]4C)C[C@H]3C)[C@H]2C)O[C@H]1C (stereo not given in full) in the assay.
Given back: t
